Ref: the supplement of paper PMC10899765

# Tested on: MCF10A
# assay.overview: 5+ nucleoli phenotype percent effect (relative to siNT 0% and siKIF11 100%); higher = more cells with five or more nucleoli
# measurement.conditions: 20 nM; 72 h
Quick list: 5+ nucleoli phenotype percent effect per entry.

sequence.chain | measured.on | 5+ nucleoli phenotype percent effect, %
UCUCUGGUCUUUCCUUGACAG [hsa-miR-6764-3p] | MCF10A | 17.2
ACCCUAUCAAUAUUGUCUCUGC [hsa-miR-454-5p] | MCF10A | 45.6
AUGGUACCCUGGCAUACUGAGU [hsa-miR-1263] | MCF10A | -22.2
UUGGACGGUAAGGUUAAGCAA [hsa-miR-4804-5p] | MCF10A | -12.4
UGUGCAAAUCCAUGCAAAACUGA [hsa-miR-19b-3p] | MCF10A | -2.64
GCGGGGGUGGCGGCGGCAUCCC [hsa-miR-4787-5p] | MCF10A | 25.2

###

Quick list: one-nucleolus phenotype percent effect per entry.
# Test system: MCF10A
# assay.overview: one-nucleolus phenotype percent effect (relative to siNT 0% and siNOL11 100%); higher = more cells with one nucleolus (ribosome biogenesis inhibition)
# measurement.conditions: 20 nM; 72 h
assay.metric: one-nucleolus phenotype percent effect

sequence.chain | measured.on | assay.metric | observed.value
UGAUAUGUUUGAUAUUGGGUU [hsa-miR-190b] | MCF10A | one-nucleolus phenotype percent effect | 21.8%
CCUCAGGGCUGUAGAACAGGGCU [hsa-miR-1266] | MCF10A | one-nucleolus phenotype percent effect | 12.6%
AGGCAUUGACUUCUCACUAGCU [hsa-miR-1256] | MCF10A | one-nucleolus phenotype percent effect | 1.57%
AUGUAGGGCUAAAAGCCAUGGG [hsa-miR-135b-3p] | MCF10A | one-nucleolus phenotype percent effect | 6.54%
UGUGAUAUCGUGCUUCCUGGGA [hsa-miR-3689f] | MCF10A | one-nucleolus phenotype percent effect | -21.8%
AAAAGUAAUUGCGGUCUUU [hsa-miR-548ap-5p] | MCF10A | one-nucleolus phenotype percent effect | -19%
UAGGACACAUGGUCUACUUCU [hsa-miR-1197] | MCF10A | one-nucleolus phenotype percent effect | 7.44%
UUGCAGCUGCCUGGGAGUGACUUC [hsa-miR-1301] | MCF10A | one-nucleolus phenotype percent effect | 26.9%
AGCUUUUGGGAAUUCAGGUAGU [hsa-miR-3140-3p] | MCF10A | one-nucleolus phenotype percent effect | 91.3%
UAUGUCUGCUGACCAUCACCUU [hsa-miR-654-3p] | MCF10A | one-nucleolus phenotype percent effect | 28.2%
ACUGGACUAGGAGUCAGAAGG [hsa-miR-378i] | MCF10A | one-nucleolus phenotype percent effect | 4.21%
CGCAGGGCCCUGGCGCAGGCAU [hsa-miR-6836-5p] | MCF10A | one-nucleolus phenotype percent effect | 28.5%
CACAAGGUAUUGGUAUUACCU [hsa-miR-624-3p] | MCF10A | one-nucleolus phenotype percent effect | 71%
UCAGUCACAUAUCUAGUGUCUA [hsa-miR-4704-3p] | MCF10A | one-nucleolus phenotype percent effect | 5.92%
CUAUACGGCCUCCUAGCUUUCC [hsa-let-7e-3p] | MCF10A | one-nucleolus phenotype percent effect | -18.7%
GAGUUCUACAGUCAGAC [hsa-miR-3168] | MCF10A | one-nucleolus phenotype percent effect | -2.63%
CCGUCGCCGCCACCCGAGCCG [hsa-miR-1181] | MCF10A | one-nucleolus phenotype percent effect | -33.1%
AAAAGUAAUUGCGGUUUUUGCC [hsa-miR-548o-5p] | MCF10A | one-nucleolus phenotype percent effect | -26.8%
GAAAUCAAGCGUGGGUGAGACC [hsa-miR-551b-5p] | MCF10A | one-nucleolus phenotype percent effect | -15.5%
CUGGGCCCGCGGCGGGCGUGGGG [hsa-miR-6724-5p] | MCF10A | one-nucleolus phenotype percent effect | -9.05%
CUCACUGAACAAUGAAUGCAA [hsa-miR-181b-3p] | MCF10A | one-nucleolus phenotype percent effect | -19.6%
UCUGUGAUAGAGAUUCUUUGCU [hsa-miR-4679] | MCF10A | one-nucleolus phenotype percent effect | -10.8%
AGAAGGAAAUUGAAUUCAUUUA [hsa-miR-1252] | MCF10A | one-nucleolus phenotype percent effect | -13.6%
AUUCUGCAUUUUUAGCAAGUUC [hsa-miR-544a] | MCF10A | one-nucleolus phenotype percent effect | 5.39%
